- System: 7G8
- assay-details: qHTS profiling for inhibitors of Plasmodium falciparum proliferation (AID 504749); also: nearly all actives have a fitted effect of over 60% in size
- run-parameters: P. falciparum in erythrocytes, SYBR Green DNA, 72 h; series mostly up to 28.7 µM
Records with an inconclusive call do not appear. Activity calls are given as the source filed them. Calls follow the shape of the dose curve; as a rule, active = well fitted inhibition curve with a large enough effect; inconclusive = small, poorly fitted or top-dose-only effect; inactive = flat fitted curve, though single readings scatter.
Select the correct class. Options are YES for active, NO for inactive and nothing else.

Some solved entries appear below for comparison.
>>> label_class("Cc1[nH]c(=O)c(C#N)cc1-c1ccncc1")
"NO"
>>> label_class("CCCCNc1cc(C(=O)O)cc(S(N)(=O)=O)c1Oc1ccccc1")
"NO"
>>> label_class("Cc1ccc(N(CC2=NCCN2)c2cccc(O)c2)cc1")
"NO"
>>> label_class("COc1ccc2nc(S(=O)Cc3ncc(C)c(OC)c3C)[nH]c2c1 (centres undefined)")
"YES"
>>> label_class("C#Cc1cccc(Nc2ncnc3cc(OCCOC)c(OCCOC)cc23)c1")
"YES"
>>> label_class("CN1CCN(CCCN2c3ccccc3Sc3ccc(C(F)(F)F)cc32)CC1")
"YES"
>>> label_class("Cc1cc2c(C(C)C)c(O)c(O)c(C=O)c2c(O)c1-c1c(C)cc2c(C(C)C)c(O)c(O)c(C=O)c2c1O")
"YES"
>>> label_class("CC(C)C[C@H](NC(=O)[C@@H](O)[C@H](N)Cc1ccccc1)C(=O)O")
"YES"
>>> label_class("O=C1CCC(N2C(=O)c3ccccc3C2=O)C(=O)N1 (centres undefined)")
"NO"
>>> label_class("OC(CN1CCC(Cc2ccc(F)cc2)CC1)c1ccc(Cl)cc1 (centres undefined)")
"YES"

Task: Check the results log: what was the call for "N=c1nc(N2CCCCC2)cc(N)n1O" ?
Output: NO

Task: So what was the verdict on "Cc1oncc1C(=O)Nc1ccc(C(F)(F)F)cc1" in this test?
Output: YES

Task: Short answer needed: outcome of this test for "Clc1ccc(Nc2nnc(Cc3ccncc3)c3ccccc23)cc1" ?
Output: YES

Task: Could you please tell me the result logged for "Cc1[nH]c(=O)c(C#N)cc1-c1ccc2nccn2c1" in this assay?
Output: NO

###

Reported values of parasite growth, % of DMSO control for individual entries
- assay-details: qHTS profiling of the MIPE4 collection as inhibitors of Plasmodium falciparum (3D7) proliferation (AID 743344);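 also: scaled between DMSO vehicle wells and 0.29 µM artemisinin as full inhibition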
- run-parameters: P. falciparum 3D7 in erythrocytes, SYBR Green DNA fluorescence, 72 h; at 28.5 µM (top of the series) unless noted
The response must be a number in % with no trailing unit.

The examples below pair each entry with its known result.
>>> assay_value("O=C1CCC(N2C(=O)c3ccccc3C2=O)C(=O)N1 (stereo unspecified)")
93.4
>>> assay_value("Cc1cc(SCc2sc(-c3ccc(C(F)(F)F)cc3)nc2C)ccc1OCC(=O)O")
64.2
>>> assay_value("Clc1cccc(Cl)c1NC1=NCCN1")
86.2

Task: Fill in the blank: the reported parasite growth, % of DMSO control of "CC(C)(N)C(=O)N[C@H](COCc1ccccc1)C(=O)N1CCC2(CC1)CN(S(C)(=O)=O)c1ccccc12" is ____.
Output: 22.8

Task: What measured parasite growth, % of DMSO control goes with "CC(C)OC(=O)C1=CN(C(=O)c2ccc(F)c(F)c2)CC(C)(C)c2c1[nH]c1ccccc21" ?
Output: 51.5

Task: # query: parasite growth, % of DMSO control of entry "CS(=O)(=O)c1ccc(C(=O)Nc2ccc(Cl)c(-c3ccccn3)c2)c(Cl)c1"
Output: 66.9

Task: Dear colleague, I am looking for the recorded parasite growth, % of DMSO control of the following compound: "O=C1CCc2cc(OCCCCc3nnnn3C3CCCCC3)ccc2N1"
Output: 90.8

Task: // query parasite growth, % of DMSO control value for entry "Cc1ccc(NC(=O)c2cccc(C(C)(C)C#N)c2)cc1Nc1ccc2ncn(C)c(=O)c2c1"
Output: 17.3

Task: Look at this compound and give its reported parasite growth, % of DMSO control. OC(CN1CCC(Cc2ccc(F)cc2)CC1)c1ccc(Cl)cc1 (stereo unspecified)
Output: 9.22

Task: Would you kindly share the measured parasite growth, % of DMSO control for "COc1ccc(-c2oc3cc(OC)ccc3c2C(=O)c2ccc(C#N)cc2)cc1" ?
Output: 23.1

Task: Given "CCOC(=O)N1CCC(=C2c3ccc(Cl)cc3CCc3cccnc32)CC1" , state its recorded parasite growth, % of DMSO control.
Output: 14.5

Task: Data request, read-out parasite growth, % of DMSO control, for "c1ccc(-c2nn3c(c2-c2ccnc4cc(OCCN5CCOCC5)ccc24)CCC3)nc1"
Output: 25.6

Task: Given COc1ccc2nc(S(=O)Cc3ncc(C)c(OC)c3C)[nH]c2c1 (stereo unspecified) , state its recorded parasite growth, % of DMSO control.
Output: 61.2

Task: Quick check: parasite growth, % of DMSO control of "Cc1c(CN2CCN(C(=O)C(C)C)CC2)sc2c(N3CCOCC3)nc(-c3cnc(N)nc3)nc12" ?
Output: 12.5

Task: // returns reported parasite growth, % of DMSO control for input "CN1CCN(CCCN2c3ccccc3Sc3ccc(C(F)(F)F)cc32)CC1"
Output: 108

Task: What value of parasite growth, % of DMSO control has been recorded for this entry: C[C@@H]1C[C@H]2[C@@H]3CCC4=CC(=O)C=C[C@]4(C)C3(F)[C@@H](O)C[C@]2(C)[C@@]1(O)C(=O)CO (stereo partly specified)
Output: 71.2

Task: Bench note: what parasite growth, % of DMSO control did "N=c1nc(N2CCCCC2)cc(N)n1O" show?
Output: 6.29

Task: Which parasite growth, % of DMSO control is reported for this compound? "CC1(C)SCCN(S(=O)(=O)c2ccc(OCC#CCO)cc2)[C@@H]1C(=O)NO"
Output: 65.2

Task: Value lookup for parasite growth, % of DMSO control; key = CCc1ccc(CCOc2ccc(CC3SC(=O)NC3=O)cc2)nc1 (stereo unspecified)
Output: 89.3

Task: Request the reported parasite growth, % of DMSO control associated with "CNCc1ccc(-c2[nH]c3cc(F)cc4c3c2CCNC4=O)cc1"
Output: 47.4

Task: Bench note: what parasite growth, % of DMSO control did "Cc1oncc1C(=O)Nc1ccc(C(F)(F)F)cc1" show?
Output: 13.7

This collection of values is drawn from PubChem BioAssay (NCATS).
